Each recorded value in this set is attributed to patent US20140128352A1.

# Assay System: glycerol-3-phosphate dehydrogenase (GPDH) (Rattus norvegicus, UniProt P35571)
# Construct: The activity of GPDH in intact mitochondria (0.3 mg/mL) was measured; from tissue; host or cells: rat skeletal muscle mitochondria (Wistar, Harlan Laboratories)
# Sequence (P35571 43-727): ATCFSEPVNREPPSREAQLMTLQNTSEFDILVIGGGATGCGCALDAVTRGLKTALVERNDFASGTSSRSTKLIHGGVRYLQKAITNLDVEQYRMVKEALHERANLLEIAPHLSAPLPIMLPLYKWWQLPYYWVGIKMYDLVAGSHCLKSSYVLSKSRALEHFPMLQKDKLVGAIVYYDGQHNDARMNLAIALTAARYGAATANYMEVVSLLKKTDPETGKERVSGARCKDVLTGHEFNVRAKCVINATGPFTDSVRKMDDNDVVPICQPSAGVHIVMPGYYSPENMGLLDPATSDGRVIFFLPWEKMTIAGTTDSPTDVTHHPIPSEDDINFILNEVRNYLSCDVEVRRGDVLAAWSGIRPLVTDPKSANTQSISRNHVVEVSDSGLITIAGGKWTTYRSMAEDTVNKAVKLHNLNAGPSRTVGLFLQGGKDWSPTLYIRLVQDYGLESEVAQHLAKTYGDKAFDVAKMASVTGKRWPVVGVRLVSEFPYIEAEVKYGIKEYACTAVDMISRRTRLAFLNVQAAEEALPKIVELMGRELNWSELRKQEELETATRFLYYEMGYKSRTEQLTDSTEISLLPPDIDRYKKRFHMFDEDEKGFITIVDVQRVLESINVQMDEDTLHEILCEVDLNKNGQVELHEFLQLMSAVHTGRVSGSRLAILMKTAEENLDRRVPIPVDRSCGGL
# Protocol Summary: High-throughput screen: ROS production from glycerol-3-phosphate dehydrogenase (GPDH)
# Format: biochemical
# Parameters: dose or concentration left out as unconfirmed
# Condition Context: Table 7; percent change in ROS from DMSO controls
Measured Parameter: inhibition (%)
All answers are understood in %, so give the number only.

CCN1CCN(C2CCC(C(C)(C)C)CC2)CC1 (stereo not shown) [Compound 22] ... 2.6
CN(C)CCN(Cc1ccccc1)Cc1ccccc1Br [Compound 23] ... 1
CCSC1=C(C#N)C2(CCCC2)C(C#N)C(=O)N1 (stereo not shown) [Compound 2] ... 0.1
O=C(O)CCC(=O)Nc1ccc(-c2nc3cc(C(=O)c4ccccc4)ccc3[nH]2)cc1 [Compound 69] ... 26
COc1cccc(CCNC2C3CC4CC(C3)CC2C4)c1 (stereo not shown) [Compound 26] ... 3.3
O=C(O)CCC(=O)Nc1ccc(Cl)cc1 [Compound 58] ... 1.2
COc1ccccc1/C=C/c1nc(O)nc(O)c1[N+](=O)[O-] [Compound 16] ... 0.6
Cl.OC12CCCCC1C(c1cccc(Cl)c1)NCC2 (stereo not shown) [Compound 51] ... 12
Cc1ccc(C)c(CN(CCCN(C)C)CCCN(C)C)c1 [Compound 32] ... -0.2
O=C(O)C1CCCCC1C(=O)NC1CCCCC1 (stereo not shown) [Compound 19] ... 1

For the compound CN(C)CCCN(CCCN(C)C)Cc1cccnc1 [Compound 33] , what inhibition is on record?
12.7

For the compound O=C(Nc1ccc(-c2nc3ccccc3[nH]2)cc1)c1ccco1 [Compound 63] , what inhibition is on record?
-8.2

For the compound Cc1ccccc1NS(=O)(=O)c1ccc(-c2ccc(S(=O)(=O)Nc3ccccc3C)cc2)cc1 [Compound 12] , what inhibition is on record?
-0.5

For the compound C=CCSc1nc(N)c(C#N)c(CC)c1C#N [Compound 7] , what inhibition is on record?
-5.6

For the compound O=C(O)CCC(=O)Nc1ccc(-c2nc3cc4ccccc4cc3[nH]2)cc1 [Compound 61] , what inhibition is on record?
3.8

For the compound Oc1nnc(Cc2ccncc2)c2ccccc12 [Compound 72] , what inhibition is on record?
-1.7

For the compound COc1ccc(C2C(C#N)=C(N)Oc3c2c(=O)oc2ccccc32)cc1O (stereo not shown) [Compound 74] , what inhibition is on record?
3.5

For the compound O=C(O)C1CCCCC1C(=O)NC1CCCCCCC1 (stereo not shown) [Compound 30] , what inhibition is on record?
-0.7

For the compound CCOc1ccc(C(=O)Nc2ccc(-c3nc4ccccc4[nH]3)cc2)cc1 [Compound 64] , what inhibition is on record?
13

For the compound CC(=O)Nc1ccc(S(=O)(=O)Nc2cccc(C)c2)cc1 [Compound 10] , what inhibition is on record?
4.3

For the compound CCCCN(Cc1ccccc1)Cc1cccc(Oc2ccc(Cl)cc2)c1 [Compound 44] , what inhibition is on record?
3.4

For the compound O=C(Nc1ccc(Br)cc1)[C@@H]1C2C=CC(C2)[C@@H]1C(=O)O (stereo partly shown) [Compound 28] , what inhibition is on record?
2.3

For the compound CC(C)(C)NS(=O)(=O)c1ccc2c(c1)C(=O)c1ccccc1C2=O [Compound 1] , what inhibition is on record?
-4.1

For the compound COc1ccc(Cl)cc1N(Cc1ccccc1)Cc1ccccc1 [Compound 34] , what inhibition is on record?
4

For the compound COc1ccc(-c2ccccc2)cc1NCC1=CC[C@H]2C[C@@H]1C2(C)C [Compound 41] , what inhibition is on record?
-2.6

For the compound c1cc2c3c(ccc(CSCCc4ccncc4)c3c1)CC2 [Compound 36] , what inhibition is on record?
4.9
